Value source: ChEMBL document CHEMBL1201862

system: EKVX; experiment: NCI tumour cell line growth inhibition, 48 h
Active and inactive are the calls of the source. Rule as the data show it: active = GI50 up to about 1.1 µM and inactive = higher.
Give one outcome, nothing more. List: Y = active, N = inactive

| molecule | experimental target | label |
| --- | --- | --- |
| O=c1[nH]c2nccnc2c2c([N+](=O)[O-])cccc12 | EKVX | N |
| CCC1=C(C)C(=O)N/C1=C\c1[nH]c(C)c([C@H](C)CCN)c1C | EKVX | N |
| COC(=O)c1ccccc1C1CN=NC12Cc1ccc3ccccc3c1C2=O (stereo unspecified) | EKVX | N |

Request: Call for entry COC(=O)C(Cc1ccccc1I)C1=CCC2(CC1)OCCO2 (stereo unspecified) :
Result: N

Request: Call for entry O=[N+]([O-])c1ccc(Sc2c3ccccc3nc3ccccc23)nc1 :
Result: N
